FYI, the data here is from ChEMBL document CHEMBL3352104.

- testedTarget: Peroxisome proliferator-activated receptor delta (Homo sapiens)
- Sequence (Q03181 whole entry, the tested form may be a part): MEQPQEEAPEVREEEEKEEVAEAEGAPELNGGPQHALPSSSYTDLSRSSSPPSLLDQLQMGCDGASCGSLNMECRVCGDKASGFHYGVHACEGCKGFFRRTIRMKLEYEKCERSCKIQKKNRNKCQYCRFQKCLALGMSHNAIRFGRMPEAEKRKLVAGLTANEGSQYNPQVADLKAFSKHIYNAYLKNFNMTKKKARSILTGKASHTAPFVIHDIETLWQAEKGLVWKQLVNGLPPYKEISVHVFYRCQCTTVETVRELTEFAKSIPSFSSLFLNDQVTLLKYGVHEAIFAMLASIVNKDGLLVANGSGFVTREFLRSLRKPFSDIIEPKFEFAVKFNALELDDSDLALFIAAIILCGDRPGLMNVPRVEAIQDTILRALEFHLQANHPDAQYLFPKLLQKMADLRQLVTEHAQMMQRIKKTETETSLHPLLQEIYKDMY
- testName: Agonist activity at GAL4-tagged PPARdelta (unknown origin)
reportedProperty: EC50 (µM)

• Cc1ccc(-c2nc(C)c(C(=O)N[C@H]3CCCN(c4cccc(C(=O)O)c4)C3)s2)cc1 = 11
• Cc1nc(-c2cccc(C(F)(F)F)c2)sc1CNCc1ccc(OC(C)(C)C(=O)O)cc1 = 25
• CC[C@@H](Oc1cccc(CN(CCCOc2ccc(OC)cc2)c2nc3ccccc3o2)c1)C(=O)O [PEMAFIBRATE] = 10
• Cc1nc(-c2ccc(Cl)cc2)sc1C(=O)N[C@H]1CCCN(c2cccc(C(=O)O)c2)C1 = 13
